Tested target: full length SGK1 (Homo sapiens)
Construct: 125 μM full length SGK1 (Life Technologies Part #PR7358A); purchased Life Technologies PR7358A
Sequence (O00141 whole entry): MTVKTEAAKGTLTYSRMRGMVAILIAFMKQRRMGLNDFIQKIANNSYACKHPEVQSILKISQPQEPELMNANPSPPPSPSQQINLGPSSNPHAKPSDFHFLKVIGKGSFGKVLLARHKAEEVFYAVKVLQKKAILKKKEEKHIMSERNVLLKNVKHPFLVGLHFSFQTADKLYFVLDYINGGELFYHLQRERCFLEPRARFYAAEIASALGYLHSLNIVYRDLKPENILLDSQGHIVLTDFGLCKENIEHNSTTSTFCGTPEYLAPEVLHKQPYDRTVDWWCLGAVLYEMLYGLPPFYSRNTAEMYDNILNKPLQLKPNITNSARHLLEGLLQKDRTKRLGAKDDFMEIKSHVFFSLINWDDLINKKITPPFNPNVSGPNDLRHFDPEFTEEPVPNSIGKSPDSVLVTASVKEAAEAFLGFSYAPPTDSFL
Assay text: SGK1 inhibition Assay A (Caliper LabChip electrophoretic separation of fluorescent peptide substrate and phosphorylated product)
Assay type: biochemical
Protocol conditions: Assay A; 20 μM ATP, 40 min incubation; read-out: SGK1 IC50
Counter-ions that a name gives are not always drawn.
Measured attribute: IC50 (µM)
The answer is to be given in µM; state only the numeric part.

These solved cases illustrate the format of a correct answer.
State its IC50: CS(=O)(=O)c1ccc(-c2cc(N3CCC[C@@H](NC(=O)c4cccc(F)c4)C3)c3c(N)ncnn23)cc1 [Example 53]
0.015

Please supply the value of reported IC50 for the item Nc1ncnn2c(-c3ccnc(F)c3)cc(N3CCC[C@@H](NC(=O)c4sc(Cl)cc4OCCN4CCOCC4)C3)c12 [Example 148, TFA]
0.005

Others:
Give the reported value of IC50 for this record: CN(C)CCOc1cc(Cl)sc1C(=O)N[C@@H]1CCCN(c2cc(-c3ccc(=O)n(CC(F)F)c3)n3ncnc(N)c23)C1 [Example 281]
0.004

Tell me measured IC50 for N#Cc1ccc(-c2cc(N3CCC[C@@H](NC(=O)c4sc(C(F)F)cc4C4CCNCC4)C3)c3c(N)ncnn23)cn1 [Example 395] please.
0.21
